# assay target: T1, ECF03_1198
# T1 chain: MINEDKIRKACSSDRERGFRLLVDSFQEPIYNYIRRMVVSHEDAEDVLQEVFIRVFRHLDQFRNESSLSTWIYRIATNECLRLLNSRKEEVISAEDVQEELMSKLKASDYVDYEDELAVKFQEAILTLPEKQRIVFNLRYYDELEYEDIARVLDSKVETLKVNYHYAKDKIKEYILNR
Measured fold repression, listed per entry for reference.
Please state the value as a number alone, without comment.

binder	fold repression
AS33_423 (protein) MMAMSNTMPDPREPGDVEALLPWYAAGTLNARDARRVADALDRDPALARQYAVILEEYASTIELNESLGAPSSRAMQKLFAAIDAEPARAPGAGQGLGARFAGFFAGLSPKALAWSASVAGLALLLQAGLIGALLTWPHAAPVQTAAYQPQREVARAPASSPAPATVSPPAAAMADRAADAGKSTPPMVMAERSGGPVVRSLAPQSGPRVLVKFAPEARASEIAALLDQYNAVVVDSSRGGLFRLQFGTQSLSKQDQETLIGRLQKEPVVSVVLSAP	15
AS25_1645 (protein) MNESFSQRQTDGDRRRGGDLEMKKNHTSHQHHTDSETPMGHNFEQFQRLSAYFDGEATPAERKEIQHLLDTDPQVKQQYQQLRQLKQALQLLPIPTSISAQYLGQRVLARLRRSQLRTLSLWGSGAIAALFVAGVMGQMPRLNFDRFAKNDPDQQPTAALVETSPQGEEALVVALNRPVLQIPKLATTESP	7.37
AS20_992 (protein) MTPERFVHLADAYGADLQRWPSAERAAAQALLDCGDAQAVAALRQAHWLDSQLDRYQVPAPSPALAQRIIAAAQQPGAPFWSRYAGWLASLGWVGVGLTGVAAGMLAVALSLPLSTSAEALPSVFDQSDAEFVLSINAEEAEQ	1.53

Entry AS35_3582 (protein) MNPQKHSASVAEEQMLAHFRAHAPQQPAPALDQAILAAARRQAAHVEPARSWWRRWLEASRRPRWQAAFASLLGVALVLGLVSHNVLDDAERQARPEVAFSDVPLRDGVAGAAAAKRAMRAPAAPAPLSGEMSEPPALLASYASSGEAPQLMAEAAPPAPAALADRPPAQAAQQAKVQAALAGDFVAQARGKAVAVKPEVLDEALGAVLALREQGKTEQAATQLAELQKRFPGENLVERLERLATIAASARKRP has what fold repression?
6.26

I have this binder here, AS16_3622 (protein) MMKTDELISLLATAEGPVDRHALARRLGLALLAGLLGALLLTVALYGVRSDLAEVARTPLFWAKVALPTSLALLGLWLTQRLARPGVRGGALWGLLGVPLLLVWLGAAISLFGAPPEARADLIFGRTWRTCALNITLLSTPVFIAVFWALRGLAPTRLRQAGAAGGLLAGSTATLVYCLHCPEMGVPFWGLWYLLGMLVPTLLGAVLGPRLLRW , and I need its recorded fold repression.
2.71

Fill in: fold repression of AS03_1198 (protein) MDKDFDFDNIGKRTPYRTPDNFFEETQRKILERTVDEQRKKRRLKRIIPTVIAVAAVLAGILFTPSLRYMNTDTPSASNILAVDKNNVTTDPVDKWIKELSDEELEELVSFSENDIFLN is ___
45.8
